- ASSAY: Conversion of prodrug derivatives to active inhibitors in mouse plasma
- Type: in vitro ADME
- SETUP CONDITIONS: 37° C., 10 μM start, prodrug remaining, 60 min
- Procedure: The samples were then analysed by LC-MS/MS to obtain the amount of active compound appearing and prodrug derivative remaining over time. The mouse plasma assay system is considered to be a good model for human behaviour. […] Prodrug derivatives were assessed in the mouse and human plasma stability assay at a concentration of 10 μM. […] (1) The active compound was quantified using a 6 point calibration curve prepared in deactivated mouse and human plasma. […]
Decision: [ ] (μM) t60 min. Prodrug beneath 2 µM gives 1 (yes); [ ] (μM) t60 min. Prodrug meeting or exceeding 2 µM gives 0 (no).

CHEMICAL SMILES: CCOC(=O)c1c(OC(=O)C(C)(C)COCCCOP(=O)(O)O)c(OC(=O)C(C)(C)COCCCOP(=O)(O)O)c(C(=O)N(C)C)n1-c1ccc(OC)cc1
CLASS: 1 (yes)
//
CHEMICAL SMILES: CCOC(=O)c1c(OP(=O)(OCC)OCC)c(OP(=O)(OCC)OCC)c(C(=O)N(C)C)n1-c1ccc(OC)cc1
CLASS: 0 (no)
//
CHEMICAL SMILES: CCOC(=O)c1c(OC(=O)C(C)C)c(OC(=O)C(C)C)c(C(=O)N(C)C)n1-c1ccc(OC)cc1
CLASS: 1 (yes)
//
CHEMICAL SMILES: CCOC(=O)c1c(OCOP(=O)(O)O)c(O)c(C(=O)N(C)C)n1-c1ccc(OC)cc1
CLASS: 1 (yes)
//
CHEMICAL SMILES: CCOC(=O)c1c(O)c(OCOP(=O)(O)O)c(C(=O)N(C)C)n1-c1ccc(OC)cc1
CLASS: 0 (no)
